Here the recorded z-score is given for each entry.
assay: growth rescue of sdo1-depleted yeast, primary screen, S. cerevisiae, bone marrow failure model (AID 817);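 further: z-score against mean and SD of all compound wells on the same plate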
particulars: S. cerevisiae sdo1-depleted JHY4D growth rescue, OD600 30 h; at 10 µM; stronger effect = higher value; pdr5 snq2 efflux-pump mutant strain
Out of some 140,000 compounds screened, about 300 (0.21%) were called active. Only a selection was taken, and actives are over-represented in it overall.
readout type: z-score

>>> df
                                    compound  readout_type  experimental_result
 0  CCCn1c(=O)c2c(C(F)(F)F)cc(-c3cccs3)nc2n(CCC)c1=O       z-score                 1.32
 1            CC(C)CCNC(=O)c1cccnc1Sc1ccccc1       z-score                  0.7
 2  Oc1c(Br)cccc1/C=N/Nc1c(F)c(F)c(F)c(F)c1F       z-score                 -1.2
 3  COc1ccc(OCC(O)CNC(=O)Nc2ccc(Cl)cc2)cc1 (stereo not drawn)       z-score                  0.9
 4  COc1ccc2c(c1)C(SCC(=O)NCc1ccccc1)CC(C)(C)O2 (stereo not drawn)       z-score                -0.16
 5  Cc1nc(CC(=O)NNS(=O)(=O)c2ccc(F)c(Cl)c2)cs1       z-score                 -0.8
 6  Cc1c(Cl)cccc1NC(=O)Nc1ccc(C(=O)N2CCCC2)cc1       z-score                  0.9
 7           Cc1sc2ncnc(Sc3nc4ccccc4s3)c2c1C       z-score                 0.02
 8  COCCOC(=O)c1c(C)oc2cc(Br)c(OCC(N)=O)cc12       z-score                  0.6
 9  CCc1nnc(NC(=O)[C@@H](NC(=O)c2cccc(C)c2)C(C)C)s1       z-score                 0.02
10      C=CCc1ccccc1OCC(=O)N/N=C/c1ccccc1OCC       z-score                 0.63
11  CCCC1OC23CCCCC2C(C#N)(C#N)C1(C#N)C(=N)O3 (stereo not drawn)       z-score                 0.28
12  Cc1ccc(C)c(NC(=O)CCC(=O)NNC(=O)c2cccs2)c1       z-score                 0.52
13  O=[N+]([O-])c1cccc(S(=O)(=O)N2CCCCCC2)c1       z-score                 0.38
14  NS(=O)(=O)c1cc(C(=O)NCCOc2ccccc2)c(Cl)cc1Cl       z-score                -0.22
15         CS(=O)(=O)Nc1ccc(C(=O)N2CCCC2)cc1       z-score                 8.85
16  CC1CCCC(NC(=O)COC(=O)[C@@H]2CC(O)CN2S(=O)(=O)c2ccc3c(c2)OCCO3)C1C (stereo partly drawn)       z-score                 1.03
17  COc1cc(/C=C/CO)cc(OC)c1O[C@@H]1O[C@H](CO)[C@@H](O)[C@H](O)[C@H]1O       z-score                 0.24
18               Cc1cccc(C(=O)c2cccc(C)c2)c1       z-score                -0.29
19  CCn1c(/C=N/NC(=O)c2ccc(OC)cc2)nc2ccccc21       z-score                -1.61
20  COc1ccc(COC(=O)N/N=C(\C)CC(=O)Nc2ccc(Cl)cc2)cc1       z-score                 -0.6
21  CC(C)CNC(=O)CC(NCC(C)C)C(=O)O (stereo not drawn)       z-score                  0.7
22  COc1ccc2c(CN3CCN(S(=O)(=O)c4cccs4)CC3)cc(=O)oc2c1       z-score                -1.29

----------
assay: growth rescue of sdo1-depleted yeast, primary screen, S. cerevisiae, bone marrow failure model (AID 817);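 further: z-score against mean and SD of all compound wells on the same plate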
particulars: S. cerevisiae sdo1-depleted JHY4D growth rescue, OD600 30 h; at 10 µM; stronger effect = higher value; pdr5 snq2 efflux-pump mutant strain
Screen size: about 140,000 compounds; about 300 (0.21%) were called active. Shown is part of a subset that was picked to be rich in actives.
# label = bin(measured z-score), where bins are b0: < -0.4; b1: ≥ -0.4 and < 0.5; b2: ≥ 0.5

                                    compound  cat
 0  CC(NC(=S)Nc1ccccc1)C1COc2ccccc2O1 (stereo not drawn)   b0
 1  COc1ccc(C(=O)NC2(C(F)(F)F)NC(=O)N(CCCc3ccccc3)C2=O)c(OC)c1OC (stereo not drawn)   b0
 2  O=C(Nn1c(-c2ccc(Cl)cc2)nc2ccccc2c1=O)c1cccnc1Cl   b2
 3           Cc1[nH]c2ccccc2c1C(=O)CSCC(=O)O   b2
 4  Cc1cc(C(=O)NNC(=S)NC(C)c2ccccc2)cs1 (stereo not drawn)   b1
 5  Cc1ccc(C(=O)c2ccc(N3CCN(C)CC3)c([N+](=O)[O-])c2)cc1   b2
 6  O=C(NC(=S)NC1CCSC1=O)c1ccccc1F (stereo not drawn)   b2
 7  CC(C)NC(=S)N1CCN(C(c2ccccc2)c2ccccc2)CC1   b0
 8                        O=c1[nH]c2ccccc2s1   b2
 9  CCOC(=O)C(C)Sc1nnc(CSc2nc3nc(C)cc(C)n3n2)o1 (stereo not drawn)   b1
10  CCC1CCCCN1C(=S)Nc1ccc(C(C)=O)cc1 (stereo not drawn)   b1
11  C=CCNC(=O)c1ccccc1NC(=O)c1ccc(Cl)c(S(=O)(=O)Nc2cccc(C)c2C)c1   b0
12  COc1ccc(NC(=O)CC2C(=O)OCC3CCCCN32)cc1Cl (stereo not drawn)   b1
13  C=CCN(c1ccc(C(=O)Nc2cc(C)cc(C)c2)cc1)S(C)(=O)=O   b0
14               O=C(NC(=O)N1CCOCC1)c1ccccc1   b2
15          FC(F)(F)c1cccc(N/N=C/c2ccccc2)c1   b0
16  N#Cc1ccccc1NC(=O)COc1c(Br)cc(Br)c2cccnc12   b1
17  CCOC(=O)N1CCN(CC(=O)c2c(C)[nH]c3ccccc23)CC1   b1
18  O=C(N/N=C\c1ccc(Br)cc1)c1ccc(Cn2cccn2)o1   b2
19  CCOC(=O)C1=C(C)Nc2nc3ccccc3n2C1c1cccs1 (stereo not drawn)   b1
20  Cc1ccc(Nc2ccc(C(N)=O)cc2[N+](=O)[O-])cc1   b1
21  CN(C)C(=O)c1ccc2c(c1)C1C3CCC(C3)C1C(c1ccccc1)N2 (stereo not drawn)   b0

----------
assay: growth rescue of sdo1-depleted yeast, primary screen, S. cerevisiae, bone marrow failure model (AID 817);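 further: z-score against mean and SD of all compound wells on the same plate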
particulars: S. cerevisiae sdo1-depleted JHY4D growth rescue, OD600; measured here: growth rescue at 24 h; at 10 µM; stronger effect = higher value; pdr5 snq2 efflux-pump mutant strain
In all, about 140,000 compounds went through this assay and about 300 (0.21%) were called active. For the sample, actives were picked, then their nearest neighbours and some compounds at random.
Rule: z-score under 0.2 gives N, otherwise Y.

                                    compound  cat
 0  C=CCNC(=O)c1ccccc1NC(=O)c1ccc(Cl)c(S(=O)(=O)Nc2cccc(C)c2C)c1    Y
 1  O=C(NN1C(=O)C2C3C=CC(O3)C2C1=O)c1ccncc1 (stereo unspecified)    N
 2  CCc1cccc(CC)c1NC(=S)NCc1ccc2[nH]c(C)cc2c1    Y
 3   O=C(OCC(=O)c1c[nH]c2ccccc12)c1cccc(O)c1    N
 4  COc1cccc(NC(=O)CN(C)S(=O)(=O)c2ccc(C)cc2)c1    N
 5        CCOC(=O)CNC(=O)/C=C/c1c(Cl)cccc1Cl    N
 6             Cc1nc2scc(-c3cccs3)c2c(=O)n1N    N
 7  CCOC(=O)C1=C(C)Nc2nc3ccccc3n2C1c1cccs1 (stereo unspecified)    Y
 8  Cc1c(C(=O)NCCN2C(=O)S/C(=C\c3cccs3)C2=O)cccc1[N+](=O)[O-]    N
 9  O=C(COC(=O)c1ccc(Oc2ccccc2)cc1)Nc1nnc(-c2ccccc2)o1    N
10  Cc1ccc(N=C2NC(=O)c3cccc([N+](=O)[O-])c32)cc1    Y

----------
assay: growth rescue of sdo1-depleted yeast, primary screen, S. cerevisiae, bone marrow failure model (AID 817);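 further: z-score against mean and SD of all compound wells on the same plate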
particulars: S. cerevisiae sdo1-depleted JHY4D growth rescue, OD600; measured here: growth rescue at 24 h; at 10 µM; stronger effect = higher value; pdr5 snq2 efflux-pump mutant strain
Screen size: about 140,000 compounds; about 300 (0.21%) were called active. For the sample, actives were picked, then their nearest neighbours and some compounds at random.
readout type: z-score

                                    compound  experimental_result
 0         Cc1cc(C)cc(NC(=S)NCc2ccc(F)cc2)c1                -0.91
 1                    COc1ccc(-c2nnco2)cc1OC                 7.83
 2  COc1ccc(NC(=S)NC2CCS(=O)(=O)C2)cc1 (configuration not stated)                -0.11
 3  COc1ccc(-c2csc(NC(=O)COC(=O)c3ccc(Br)o3)n2)cc1                 1.52
 4  CC(C)CC(CO)N1CCN(C(=O)c2ccc(Cl)cc2Cl)CCC1=O (configuration not stated)                -0.56
 5  Cc1ccc(C(=O)c2ccc(N3CCN(C)CC3)c([N+](=O)[O-])c2)cc1                 1.21
 6           Cc1sc2ncnc(Sc3nc4ccccc4s3)c2c1C                -0.34
 7             COc1ccc2c(Cl)c(-c3nnco3)sc2c1                -0.79
 8    CCOC(=O)c1c(NC(=S)Nc2ccccc2C)sc2c1CCC2                 0.75
 9  Cc1ccc(C)c(OCC(=O)N2CCN(C(=O)c3ccco3)CC2)c1                    2
10  O=[N+]([O-])c1cccc(S(=O)(=O)N2CCCCCC2)c1                -0.08
11          O=C(Cc1cccc2ccccc12)NCCC1=CCCCC1                -0.75
